Catalogue of KDR OD(450 nm) readings, one per entry.
assay-target: T1, soluble KDR (VEGF Receptor 2 D1-7, Cat. #676490, Calbiochem) (human, UniProt P35968 20-764)
T1 construct: extracellular domain; Bought reagent; also called soluble human KDR; immobilized soluble KDR
T1 sequence (P35968 20-764): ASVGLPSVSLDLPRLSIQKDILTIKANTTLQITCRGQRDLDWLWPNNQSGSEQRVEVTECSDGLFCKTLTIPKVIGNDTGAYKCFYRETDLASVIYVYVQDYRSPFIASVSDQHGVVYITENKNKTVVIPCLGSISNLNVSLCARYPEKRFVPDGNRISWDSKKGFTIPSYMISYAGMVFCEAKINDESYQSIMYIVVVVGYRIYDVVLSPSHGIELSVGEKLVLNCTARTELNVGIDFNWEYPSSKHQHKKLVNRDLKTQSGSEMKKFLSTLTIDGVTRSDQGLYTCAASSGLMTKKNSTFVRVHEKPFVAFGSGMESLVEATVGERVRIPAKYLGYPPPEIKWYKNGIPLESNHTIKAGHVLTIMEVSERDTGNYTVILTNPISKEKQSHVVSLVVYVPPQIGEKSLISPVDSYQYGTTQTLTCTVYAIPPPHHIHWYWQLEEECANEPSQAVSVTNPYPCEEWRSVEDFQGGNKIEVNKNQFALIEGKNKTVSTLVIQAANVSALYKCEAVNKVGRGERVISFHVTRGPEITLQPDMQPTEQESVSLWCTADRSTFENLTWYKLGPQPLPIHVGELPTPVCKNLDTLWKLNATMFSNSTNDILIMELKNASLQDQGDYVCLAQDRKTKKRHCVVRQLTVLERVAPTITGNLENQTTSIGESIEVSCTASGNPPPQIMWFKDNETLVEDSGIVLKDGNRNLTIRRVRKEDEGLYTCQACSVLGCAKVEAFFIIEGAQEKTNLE
protocol-text: ELISA, plate-coated soluble KDR 250 ng/mL, hybridoma supernatant 1:5
Experimental: To screen by binding to immobilized soluble KDR, plates were coated with KDR (Calbiochem) at 250 ng/mL overnight at 4° C. After blocking and washing the coated plates, the candidate hybridoma supernatants (at 1:5 dilution) were transferred to the plates and incubated for one hour at room temperature. The plates were then washed and incubated with secondary antibody (at 1:4000 dilution) for one hour at room temperature.
Response body: numeric value in OD450, unit text excluded.

For orientation, consider the following solved cases.
| binder | value-unit | reported-value |
| --- | --- | --- |
| anti-KDR monoclonal antibody 33B1 (antibody, V domains shown, Fully human mAb from XenoMouse (IgG2 or IgG4 strain); hybridoma supernatant) VH: EVQLVESGGGLVKPGGSLRLSCAASGFTFSSYTMNWVRQAPGKGLEWVSFIDSRSSYIYYADSVKGRFTISRDNAKNSLYLQMNSLRAEDTAVYYCSKDDWFEELWGQGTLVTVSS VL: DIQMTQSPSSLSASVGDRVTITCRASQGIRNDLGWYQQKPGKAPKRLIYATSSLQSGVPSRFSGSGSGTEFTLTISSLQPEDFATYYCLHHNSFPWTFGQGTKVEIK | OD450 | 1.11 |
| anti-KDR monoclonal antibody 29H3 (antibody, V domains shown, Fully human mAb from XenoMouse (IgG2 or IgG4 strain); hybridoma supernatant) VH: QVQLVQSGAEVKKPGASVKVSCKASGYTFTSYDINWVRQATGQGLEWMGWMNPNSGKTGYAQKFQGRVTMTRNTSINTAYMELSSLRSEDTAVYYCARGGYSNLGWFDPWGQGTLVTVSS VL: DIQMTQSPSSVSASVGDRVTITCRASQGISSWLVWYHQKPGKAPKLLIYGASSLQSGVPSRFSGSGSGTDFTLTISSLQPEDFATYYCQQANNFPFTFGPGTKVDIK | OD450 | 0.83 |

Value lookup for KDR OD(450 nm); key = anti-KDR monoclonal antibody 24C9 (antibody, V domains shown, Fully human mAb from XenoMouse (IgG2 or IgG4 strain); hybridoma supernatant) VH: EVQLVESGGGLVKPGGSLRLSCAASGFTFSTYSMNWVRQAPGKGLEWVSFISGRSSYIYYADSVKGRFTISRDNAKNSLYLQMNSLRAEDTAVYYCSKDDWFEELWGQGTLVTVSS VL: DIQMTQSPSSLSASVGDRVTITCRASQGIRNDLGWYQQKPGKAPKRLIYATFSLQSGVPSRFSGSGSGTEFTLTISSLQPEDFATYYCLQHNRYPWTFGQGTKVEIK 0.55
